Task for the reader: assign each of the following molecules its reported pKi.
# STUDY_SYSTEM: Recombinant human soluble BACE1 catalytic domain (Homo sapiens (Human), UniProt P56817)
# Sequence (P56817 75-416): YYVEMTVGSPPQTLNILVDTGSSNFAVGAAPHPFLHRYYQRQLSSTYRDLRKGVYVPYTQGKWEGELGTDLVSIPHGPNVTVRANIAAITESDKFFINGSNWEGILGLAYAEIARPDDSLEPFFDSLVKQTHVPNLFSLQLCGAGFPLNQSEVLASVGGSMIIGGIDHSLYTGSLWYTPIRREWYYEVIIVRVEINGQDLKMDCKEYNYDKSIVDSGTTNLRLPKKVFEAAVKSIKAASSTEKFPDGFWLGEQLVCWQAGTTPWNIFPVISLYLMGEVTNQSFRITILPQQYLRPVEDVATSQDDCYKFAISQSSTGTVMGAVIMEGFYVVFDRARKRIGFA
# METHOD_SUMMARY: BACE1 HTRF FRET Assay
# CONDITION_INFO: Ki calculated from IC50 using the Cheng-Prusoff equation; QSY7-APPswe-Eu substrate, pH 5.0; read-out: BACE-1 Ki
# Source text: Reagents: Na^+-Acetate pH 5.0; 1% Brij-35; Glycerol; Dimethyl Sulfoxide (DMSO); Recombinant human soluble BACE1 catalytic domain (>95% pure); APP Swedish mutant peptide substrate (QSY7-APP^swe-Eu): QSY7-EISEVNLDAEFC-Europium-amide. A homogeneous time-resolved FRET assay can be used to determine IC50 values for inhibitors of the soluble human BACE1 catalytic domain. […] Inhibition of BACE1 cleavage of the QSY7-APP^swe-Eu substrate by inhibitors is manifested as a suppression of 620 nm fluorescence. […]
Reminder that pKi means the negative base-10 logarithm of the concentration expressed in mol/L.

IN: Consider the molecule shown here: CN1C(=N)N[C@@]2(c3cc(OCC4CC4(F)F)ccc3F)CO[C@@H](C3CC3)C[C@H]2C1=O (stereo partly drawn) What is its recorded pKi?
OUT: 7.51

IN: Consider the molecule shown here: `CN1C(=N)N[C@@]2(c3cc(Oc4cncc(C#N)c4)ccc3F)CO[C@@H](C3CC3)C[C@H]2C1=O` What is its recorded pKi?
OUT: 8.00

IN: Consider the molecule shown here: COC[C@H]1C[C@H]2C(=O)N(C)C(=N)N[C@@]2(c2cc(OCC3CC3)ccc2F)CO1 [Example 32] What is its recorded pKi?
OUT: 7.68

IN: Consider the molecule shown here: `C[C@H]1C[C@H]2C(=O)N(C)C(=N)N[C@@]2(c2cc(Oc3cc4ccccc4cn3)ccc2F)CO1` What is its recorded pKi?
OUT: 5.84

IN: Consider the molecule shown here: `COC[C@H]1C[C@H]2C(=O)N(C)C(=N)N[C@@]2(c2cc(Oc3ncccc3F)c(F)cc2F)CO1` What is its recorded pKi?
OUT: 9.00

IN: Consider the molecule shown here: `COCCOc1ccc(F)c([C@]23CO[C@@H](C4CC4)C[C@H]2C(=O)N(C)C(=N)N3)c1` What is its recorded pKi?
OUT: 7.04

IN: Consider the molecule shown here: `CN1C(=N)N[C@@]2(c3cc(-c4cncnc4)ccc3F)CO[C@@H](C3CC3)C[C@H]2C1=O` What is its recorded pKi?
OUT: 6.87

IN: Consider the molecule shown here: `CC(C)COc1ccc(F)c([C@]23CO[C@@H](C4CC4)C[C@H]2C(=O)N(C)C(=N)N3)c1` What is its recorded pKi?
OUT: 7.35

IN: Consider the molecule shown here: `CN1C(=N)N[C@@]2(c3cc(Oc4cncc(C(F)F)n4)ccc3F)CO[C@@H](C3CC3)C[C@H]2C1=O` What is its recorded pKi?
OUT: 7.80

IN: Consider the molecule shown here: `COC[C@H]1C[C@H]2C(=O)N(C)C(=N)N[C@@]2(c2cc(Oc3cc(F)cnc3F)c(F)cc2F)CO1` What is its recorded pKi?
OUT: 8.52

IN: Consider the molecule shown here: `CN1C(=N)N[C@@]2(c3cc(Oc4cc(-n5cccn5)ncn4)ccc3F)CO[C@@H](C3CC3)C[C@H]2C1=O` What is its recorded pKi?
OUT: 7.28

IN: Consider the molecule shown here: `CN1C(=N)N[C@@]2(c3cc(OCC4CC4)ccc3F)COCC[C@H]2C1=O` What is its recorded pKi?
OUT: 7.36

IN: Consider the molecule shown here: `CN1C(=N)N[C@@]2(c3cc(Oc4ccncc4)ccc3F)CO[C@@H](C3CC3)C[C@H]2C1=O` What is its recorded pKi?
OUT: 7.27

IN: Consider the molecule shown here: `CN1C(=N)N[C@@]2(c3cc(Oc4cnccn4)ccc3F)CO[C@@H](C3CC3)C[C@H]2C1=O` What is its recorded pKi?
OUT: 7.89

IN: Consider the molecule shown here: `CN1C(=N)N[C@@]2(c3cc(Oc4cc(-n5cccn5)ccn4)ccc3F)CO[C@@H](C3CC3)C[C@H]2C1=O` What is its recorded pKi?
OUT: 8.05
